Test system: SK-MEL-5 melanoma
Assay: NCI-60 one-dose screen, 48 h
Details: 10 µM unless noted
Compounds without any hit were thinned out: in the full panel of roughly 83,000, 20% have a hit. Activity calls are given as the source filed them. How the source made its calls: active means growth percent below 10; inactive means the rest.
Labels: yes (1) (active), no (0) (inactive)

molecule | assayed.target | class.label
COc1cc2c(cc1O)[C@@]1(C)[C@H](c3ccccc3Br)OC(=O)N1CC2 | SK-MEL-5 melanoma | no (0)
O=C1c2cccnc2C(=O)c2c1c(C(=O)OCCCN1CCCCC1)c1ccccn21 | SK-MEL-5 melanoma | yes (1)
COc1cc(/C=C\c2cc(/C=C\c3ccc(O)c(OC)c3)n(C(=O)CNc3ccc(Cl)cc3)n2)ccc1O | SK-MEL-5 melanoma | no (0)
C=C(C)[C@@H]1CC[C@]2(CO)CC[C@]3(C)[C@H](CC[C@@H]4[C@@]5(C)CCC(NCCc6ccc(O)cc6)C(C)(C)[C@@H]5CC[C@]43C)[C@@H]12 (stereo not given in full) | SK-MEL-5 melanoma | yes (1)
CC(C)c1ccc(-n2c(=S)[nH]c3sc4c(c3c2=O)CCC(=O)C4)cc1 | SK-MEL-5 melanoma | no (0)
CNC(=O)c1cc(Oc2ccc3nc(NC(=O)Nc4ccc(Cl)c(Cl)c4)sc3c2)ccn1 | SK-MEL-5 melanoma | no (0)
COC(=O)/C=C1/SC(=Nc2cccc(Cl)c2)N(CCc2c[nH]c3ccc(O)cc23)C1=O | SK-MEL-5 melanoma | no (0)
COc1ccc2c(O)c(/C=C3\N=Nc4ccccc43)oc2c1C[C@H]1CCNC[C@H]1F | SK-MEL-5 melanoma | no (0)
CCCCCCCC/C=C\CCCCCCCCOc1ccc(CC(=O)NCC[N+](C)(C)C)cc1 | SK-MEL-5 melanoma | no (0)
CCN(CC)CCOc1nc2c3ccc(Cl)cc3nn2c2ccccc12 | SK-MEL-5 melanoma | no (0)
C/C(=N\O)C(=O)NCCCCCC(=O)Nc1ccccc1 | SK-MEL-5 melanoma | no (0)
O=C(CBr)CN1C(=O)c2ccccc2C1=O | SK-MEL-5 melanoma | no (0)
CCNC(=O)Oc1ccc(/C(=C(/C)Cc2ccc(OC)cc2)c2ccc(OCCN3CCCC3)cc2)cc1 | SK-MEL-5 melanoma | no (0)
CCCCSCC(=O)c1ccccc1 | SK-MEL-5 melanoma | no (0)
COc1cc2oc(-c3cccc(NC(=O)c4ccc5c(c4)OCO5)c3)cc(=O)c2c(OC)c1OC | SK-MEL-5 melanoma | no (0)
OC(c1ccccc1)(c1ccccc1)c1ccccc1-c1ccccc1 | SK-MEL-5 melanoma | no (0)
C[N+](C)(C/C=C/c1ccccc1)Cc1ccccc1 | SK-MEL-5 melanoma | no (0)
Cc1ccc(C(=O)c2ccc(CC(=O)N/N=C/c3ccc(O)cc3O)n2C)cc1 | SK-MEL-5 melanoma | no (0)
CCc1ccc(CCC(=O)Nc2ncc(Cc3ccc(Cl)cc3)s2)o1 | SK-MEL-5 melanoma | no (0)
Cc1cc2oc(=O)cc(CP(=O)(O)O)c2cc1O | SK-MEL-5 melanoma | no (0)
COc1cc(C#Cc2ccc(=O)oc2C#Cc2ccccc2)cc(OC)c1OC | SK-MEL-5 melanoma | no (0)
Cn1cc(-c2csc(-c3cn(C)c4ccc(Br)cc34)n2)c2cnccc21 | SK-MEL-5 melanoma | yes (1)
O=c1[nH]cnc2c1C(c1ccc(Br)cc1)c1sc3c(F)cccc3c1O2 (stereo not given) | SK-MEL-5 melanoma | no (0)
CCCC(O)Cn1ncc(C(=O)OCC)c1NC(=O)NCc1cccc(F)c1 (stereo not given) | SK-MEL-5 melanoma | no (0)
COC(c1ccc2ccccc2c1)C(C)C(F)F (stereo not given) | SK-MEL-5 melanoma | no (0)
CC(O)c1ncc(/C=C2\SC(=S)N(Cc3ccccc3)C2=O)s1 (stereo not given) | SK-MEL-5 melanoma | no (0)
CCCn1c(=S)sc2c1nc(C)n1c(Nc3ccccc3)nnc21 | SK-MEL-5 melanoma | no (0)
c1ccc2cc(Cn3c[n+](Cc4ccc5ccccc5c4)c4ccccc43)ccc2c1 | SK-MEL-5 melanoma | yes (1)
COc1cc2c(c(OC)c1OC)C(=O)N[C@@H]1[C@@H](O)[C@@H](O)[C@H](O)C[C@@H]21 | SK-MEL-5 melanoma | no (0)
CCCCCCCCNc1cc2c3c(c1)CCCN3CCC2 | SK-MEL-5 melanoma | yes (1)
COc1cc2cc(Oc3ccc(NC(=O)Nc4ccccc4)cc3)c(C)nc2cc1OCCN1CCCCC1 | SK-MEL-5 melanoma | no (0)
C=C(CO)[C@@H]1CC[C@]2(COC3CCCCO3)CC[C@]3(C)[C@H](CC[C@@H]4[C@@]5(C)C=C(C=O)C(=O)C(C)(C)[C@@H]5CC[C@]43C)[C@@H]12 (stereo not given in full) | SK-MEL-5 melanoma | yes (1)
CCn1cc(C(=O)N/N=C/c2ccc(Br)cc2)c(=O)c2cc(F)c(N3CCNC(C)C3)c(F)c21 (stereo not given) | SK-MEL-5 melanoma | no (0)
C=CC1(C)C(O[Si](C)(C)C(C)(C)C)CC2C3OC(=O)NC31c1cccc3c1[C@H](C(=O)N3C)C2(C)C (stereo not given in full) | SK-MEL-5 melanoma | no (0)
COC(=O)C1=Nc2ccc(F)cc2/C1=C\c1sc(Nc2ccc(O)cc2)nc1O | SK-MEL-5 melanoma | no (0)
Cn1c(=O)c2c(nc(NC3=NS(=O)(=O)c4ccccc43)n2Cc2ccccc2)n(C)c1=O | SK-MEL-5 melanoma | no (0)
Brc1ccc(-c2cnc3nonc3n2)cc1 | SK-MEL-5 melanoma | no (0)
COCCCOc1cc(C[C@@H](C[C@H](N)[C@@H](O)C[C@H](C(=O)NCC(C)(C)C(N)=O)C(C)C)C(C)C)ccc1OC | SK-MEL-5 melanoma | no (0)
Cc1ccc(/C=C(\C#N)C(=O)Nc2ncc(Cc3cc(Cl)ccc3Cl)s2)o1 | SK-MEL-5 melanoma | no (0)
CN1CCCc2cc(/C=C3/SC(=S)N(CCc4ccc(O)cc4)C3=O)ccc21 | SK-MEL-5 melanoma | no (0)

These data points were gathered from PubChem BioAssay (NCI).
